So I've got a bunch of substances here, and I need their Kd values.
target: RNA; assay: Binding affinity to CAG repeat RNA (unknown origin) assessed as dissociation constant; type: nucleic-acid assay
Just the number in nM, nothing appended.

-- ask Entry `H-DGKSKGIAYIEFK-OH` has what Kd?
-- reply 8.37

-- ask Entry `H-AEIRLVSKDGKSKGIAYIEFK-OH` has what Kd?
-- reply 660

-- ask Entry `Ac-DGKSKGIAYIEFK-NH2` has what Kd?
-- reply 0.33

###

Molecular target: Caspase-6 (Homo sapiens, UniProt P55212)
Sequence (P55212 whole entry): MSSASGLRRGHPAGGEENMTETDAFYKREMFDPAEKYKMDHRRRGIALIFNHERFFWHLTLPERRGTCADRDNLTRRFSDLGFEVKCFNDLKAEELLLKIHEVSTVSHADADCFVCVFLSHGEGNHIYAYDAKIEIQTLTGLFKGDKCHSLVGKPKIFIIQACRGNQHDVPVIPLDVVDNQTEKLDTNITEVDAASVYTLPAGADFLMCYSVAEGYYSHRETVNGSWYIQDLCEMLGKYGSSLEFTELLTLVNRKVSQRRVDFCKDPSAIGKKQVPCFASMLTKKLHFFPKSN
Experiment: Inhibition of Caspase-6 activity (unknown origin) by FRET assay
EXPERIMENTAL_READOUT: IC50 (nM)
Just the number in nM, nothing appended.

-- ask Entry `H-GRKKRRQRRRPPQSSEIVLDGTDN-OH` has what IC50?
-- reply 12.1
